// IC50 at 48 h lookup, one value per entry
# assay-protocol: in vitro
# run-conditions: African green monkey, vero
quantity: IC50 at 48 h

| molecule | value-measured |
| --- | --- |
| O=C1CN(/N=C/c2ccc([N+](=O)[O-])o2)C(=O)N1 [NITROFURANTOIN] | > 100 µM |
| O=C1OCCN1/N=C/c1ccc([N+](=O)[O-])o1 [FURAZOLIDONE] | > 100 µM |

====

# assay-protocol: Cytotoxicity against HEK293 cells assessed as inhibition of cell growth incubated for 48 hrs by resazurin dye based assay
# Type: toxicity
# run-conditions: human
// IC50 at 48 h lookup, one value per entry
quantity: IC50 at 48 h

| molecule-smiles | value-measured |
| --- | --- |
| CCCCCCCCc1cn(CCCN2C(=O)CN(/N=C/c3ccc([N+](=O)[O-])o3)C2=O)nn1 | 11.5 µM |
| CCCCCCCCc1cn(CCCCCN2C(=O)CN(/N=C/c3ccc([N+](=O)[O-])o3)C2=O)nn1 | 28.6 µM |
| CCCCc1cn(CCCN2C(=O)CN(/N=C/c3ccc([N+](=O)[O-])o3)C2=O)nn1 | 43.9 µM |
| Cc1ccc(-c2cn(CCCCCN3C(=O)CN(/N=C/c4ccc([N+](=O)[O-])o4)C3=O)nn2)cc1 | 13.9 µM |
